Tested on: Escherichia coli TOP10
Experiment: shrunken log2 fold change of peptide-encoding DNA abundance (4.5 h post-induction vs induction); higher = less antimicrobial activity (less host growth inhibition)
Conditions: time post-induction: 4.5 h; library: site-saturation at positions 5, 18, 19, 20
readout-label: shrunken log2 fold change
Respond numerically, and do not add a unit to the figure.

Reference set, count: 3
RRIRTRPPRLPRPRPRPAKIPRP : 0.0299
RRIRFRPPRLPRPRPRPWHRPRP : 2.08
RRIRYRPPRLPRPRPRPVRQPRP : 0.132

Ask | Given the sequence RRIRARPPRLPRPRPRPEMVPRP , what is its reported shrunken log2 fold change?
Reply | 0.00546

Ask | And RRIRDRPPRLPRPRPRPWSAPRP ?
Reply | -0.347

Ask | And RRIRARPPRLPRPRPRPKMTPRP ?
Reply | 0.365

Ask | And RRIRDRPPRLPRPRPRPYPLPRP ?
Reply | 0.215

Ask | And RRIRFRPPRLPRPRPRPAGPPRP ?
Reply | 0.118

Ask | And RRIRTRPPRLPRPRPRPPIQPRP ?
Reply | 0.0675

Ask | And RRIRDRPPRLPRPRPRPCRGPRP ?
Reply | -0.138

Ask | And RRIRWRPPRLPRPRPRPRKAPRP ?
Reply | 0.285

Ask | And RRIRSRPPRLPRPRPRPDNLPRP ?
Reply | -0.0926

Ask | And RRIRIRPPRLPRPRPRPPVAPRP ?
Reply | 0.123

====

System: Escherichia coli TOP10
Test: shrunken log2 fold change of peptide-encoding DNA abundance (4.5 h post-induction vs induction); higher = less antimicrobial activity (less host growth inhibition)
Settings: time post-induction: 4.5 h; library: site-saturation at positions 5, 18, 19, 20
Use TRUE when the recorded shrunken log2 fold change is no lower than 0.01; use FALSE when it is lower.

Recorded results for 5 sequences are shown here.
RRIRKRPPRLPRPRPRPYKQPRP : FALSE
RRIRSRPPRLPRPRPRPPDTPRP : TRUE
RRIRLRPPRLPRPRPRPTVKPRP : FALSE
RRIRKRPPRLPRPRPRPEINPRP : TRUE
RRIRQRPPRLPRPRPRPDAQPRP : FALSE

Ask | For this sequence, is measured shrunken log2 fold change 0.01 or higher? RRIRHRPPRLPRPRPRPYMDPRP
Reply | FALSE

Ask | And RRIRDRPPRLPRPRPRPAFSPRP ?
Reply | FALSE

====

Tested on: Escherichia coli TOP10;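 also: peptides expressed intracellularly from a pBAD plasmid library in pooled LB shake-flask culture, induced with 0.3% L-arabinose, DNA abundance read by NGS, three biological replicates, DESeq2 with apeglm shrinkage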
Assay: shrunken log2 fold change of peptide-encoding DNA abundance (4.5 h post-induction vs induction); higher = less antimicrobial activity (less host growth inhibition)
Details: time post-induction: 4.5 h; library: site-saturation at positions 5, 18, 19, 20
// classify(record): look up shrunken log2 fold change in ranges lower range (below -0.07), middle range (-0.07 to below -0.001), upper range (-0.001 or more)

RRIRDRPPRLPRPRPRPPQKPRP : middle range

Ask | Place this sequence in its band: RRIRCRPPRLPRPRPRPPKRPRP
Reply | upper range

Ask | And RRIRARPPRLPRPRPRPMRYPRP ?
Reply | lower range

Ask | And RRIRHRPPRLPRPRPRPQDIPRP ?
Reply | lower range

Ask | And RRIRKRPPRLPRPRPRPQQCPRP ?
Reply | lower range

Ask | And RRIRPRPPRLPRPRPRPKRDPRP ?
Reply | upper range

Ask | And RRIRARPPRLPRPRPRPEAHPRP ?
Reply | upper range

Ask | And RRIRIRPPRLPRPRPRPWYYPRP ?
Reply | middle range
